Measured values drawn from BindingDB's records for doi:10.7270/Q2TX3CSC for this set.

targetSystem: Solute carrier family 12 member 5 (Homo sapiens, UniProt Q9H2X9)
Sequence (Q9H2X9 whole entry): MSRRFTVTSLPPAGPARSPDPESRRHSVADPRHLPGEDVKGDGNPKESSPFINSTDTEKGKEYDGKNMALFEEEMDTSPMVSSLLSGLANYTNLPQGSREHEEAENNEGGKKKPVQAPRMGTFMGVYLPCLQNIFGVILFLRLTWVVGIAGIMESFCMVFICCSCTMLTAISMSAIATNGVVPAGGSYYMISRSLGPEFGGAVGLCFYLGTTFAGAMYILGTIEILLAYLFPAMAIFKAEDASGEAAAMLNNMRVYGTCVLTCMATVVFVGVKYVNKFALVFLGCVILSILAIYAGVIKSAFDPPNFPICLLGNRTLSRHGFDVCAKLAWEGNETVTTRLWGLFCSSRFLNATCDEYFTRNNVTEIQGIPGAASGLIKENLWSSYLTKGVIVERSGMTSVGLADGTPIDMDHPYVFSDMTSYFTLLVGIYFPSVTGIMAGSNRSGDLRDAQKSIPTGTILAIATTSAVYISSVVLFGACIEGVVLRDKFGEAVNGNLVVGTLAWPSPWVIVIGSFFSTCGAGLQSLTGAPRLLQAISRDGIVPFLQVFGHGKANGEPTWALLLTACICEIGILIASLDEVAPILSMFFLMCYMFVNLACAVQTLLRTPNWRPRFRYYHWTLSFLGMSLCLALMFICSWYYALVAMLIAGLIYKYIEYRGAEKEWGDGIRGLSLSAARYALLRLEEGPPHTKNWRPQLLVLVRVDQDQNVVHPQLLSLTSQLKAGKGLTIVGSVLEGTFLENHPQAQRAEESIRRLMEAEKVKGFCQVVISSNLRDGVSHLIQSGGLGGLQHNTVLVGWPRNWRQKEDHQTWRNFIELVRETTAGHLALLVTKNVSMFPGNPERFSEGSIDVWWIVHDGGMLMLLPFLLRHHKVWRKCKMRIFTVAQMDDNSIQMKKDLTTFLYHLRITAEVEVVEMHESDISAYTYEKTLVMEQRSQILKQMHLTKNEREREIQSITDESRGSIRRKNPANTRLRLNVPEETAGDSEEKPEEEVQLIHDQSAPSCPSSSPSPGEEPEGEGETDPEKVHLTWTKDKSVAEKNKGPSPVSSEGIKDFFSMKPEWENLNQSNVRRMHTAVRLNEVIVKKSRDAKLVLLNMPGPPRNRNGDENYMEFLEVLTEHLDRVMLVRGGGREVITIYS
protocolSummary: concentration-response of KCC2 transport modulators – cell-based, HEK293 KCC2, FluoZin-2 fluorescence, dose response (AID 1736)
So basically: is EC50 under 700 nM? Then 1. Not under? Then 0.

{"columns": ["mol", "targetSystem", "classLabel"],
 "data": [
  ["O=C(NC(=S)NNC(=O)c1cnccn1)c1ccc(Cl)cc1", "Solute carrier family 12 member 5 (Homo sapiens, UniProt Q9H2X9)", 0],
  ["O=C(NN1C(=O)/C(=C/c2nc3ccccc3[nH]2)SC1=S)c1ccccc1Cl", "Solute carrier family 12 member 5 (Homo sapiens, UniProt Q9H2X9)", 1],
  ["O=C(c1ccc(N2CCCCCC2)c([N+](=O)[O-])c1)N1CCc2ccccc21", "Solute carrier family 12 member 5 (Homo sapiens, UniProt Q9H2X9)", 1],
  ["CS(=O)(=O)N(CC(=O)N1CCN(c2ccc(F)cc2)CC1)c1ccc(F)c(Cl)c1", "Solute carrier family 12 member 5 (Homo sapiens, UniProt Q9H2X9)", 0],
  ["O=C(NNc1nc(-c2ccccc2)cs1)c1cccs1", "Solute carrier family 12 member 5 (Homo sapiens, UniProt Q9H2X9)", 1],
  ["O=C(Cn1cnc2c(nnn2-c2ccccc2)c1=O)NCCc1ccccc1", "Solute carrier family 12 member 5 (Homo sapiens, UniProt Q9H2X9)", 0],
  ["Cc1[nH]c2ccccc2c1Cc1nnc(S)o1", "Solute carrier family 12 member 5 (Homo sapiens, UniProt Q9H2X9)", 0],
  ["CN(C)S(=O)(=O)c1ccc(Cl)c(C(=O)Nc2nc3ccccc3[nH]2)c1", "Solute carrier family 12 member 5 (Homo sapiens, UniProt Q9H2X9)", 0]
]}

* * *

Quick reference: pEC50 of the listed items.
targetSystem: Solute carrier family 12 member 5 (Homo sapiens)
Sequence (Q9H2X9 whole entry): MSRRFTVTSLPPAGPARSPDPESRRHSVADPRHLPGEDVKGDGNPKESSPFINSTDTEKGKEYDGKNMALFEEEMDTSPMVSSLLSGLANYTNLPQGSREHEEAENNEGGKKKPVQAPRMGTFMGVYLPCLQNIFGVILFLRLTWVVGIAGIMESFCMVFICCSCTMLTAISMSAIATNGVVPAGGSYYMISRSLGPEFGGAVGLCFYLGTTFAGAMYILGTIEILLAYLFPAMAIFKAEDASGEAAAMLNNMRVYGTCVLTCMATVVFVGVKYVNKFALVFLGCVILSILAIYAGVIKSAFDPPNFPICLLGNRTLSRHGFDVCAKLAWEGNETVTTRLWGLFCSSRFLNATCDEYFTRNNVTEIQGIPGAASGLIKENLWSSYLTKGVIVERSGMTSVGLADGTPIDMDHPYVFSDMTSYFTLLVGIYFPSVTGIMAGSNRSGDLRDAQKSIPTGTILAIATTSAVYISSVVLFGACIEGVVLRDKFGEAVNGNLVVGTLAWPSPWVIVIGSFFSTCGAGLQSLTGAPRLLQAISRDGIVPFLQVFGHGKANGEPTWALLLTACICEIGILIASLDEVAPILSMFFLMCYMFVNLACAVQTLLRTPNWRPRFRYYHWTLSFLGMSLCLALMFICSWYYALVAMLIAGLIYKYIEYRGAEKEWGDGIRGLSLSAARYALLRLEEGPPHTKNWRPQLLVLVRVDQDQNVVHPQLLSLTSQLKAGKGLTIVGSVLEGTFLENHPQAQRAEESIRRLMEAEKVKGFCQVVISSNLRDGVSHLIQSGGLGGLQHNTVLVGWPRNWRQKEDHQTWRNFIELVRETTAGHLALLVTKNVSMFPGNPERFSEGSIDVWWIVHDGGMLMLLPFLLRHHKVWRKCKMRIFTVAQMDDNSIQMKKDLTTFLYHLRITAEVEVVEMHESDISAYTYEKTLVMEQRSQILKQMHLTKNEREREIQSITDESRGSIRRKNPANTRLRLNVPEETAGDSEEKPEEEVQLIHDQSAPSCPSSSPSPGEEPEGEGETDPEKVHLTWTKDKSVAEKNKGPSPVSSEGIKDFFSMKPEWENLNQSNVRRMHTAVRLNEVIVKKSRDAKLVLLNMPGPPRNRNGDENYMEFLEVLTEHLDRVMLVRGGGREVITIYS
protocolSummary: concentration-response of KCC2 transport modulators – cell-based, HEK293 KCC2, FluoZin-2 fluorescence, dose response (AID 1736)
pEC50: −log10 of the molar value.

{"columns": ["compound", "pEC50"],
 "data": [
  ["CCN(CC)c1ccc2c(C)c(-c3ccc(N)cc3)c(=O)oc2c1", 6.01],
  ["N#CC(C(=O)COc1ccccc1)c1nc2ccccc2s1 (stereo not drawn)", 5.07],
  ["CC1Cc2ccccc2N1C(=O)/C=C/c1cccc(F)c1 (stereo not drawn)", 3.89],
  ["COc1cc(C(=S)N2CCOCC2)cc(OC)c1OC(=O)Cc1ccccc1", 6.09],
  ["Cc1ccc(-c2n[nH]c(=S)n2NC=CCc2ccccc2[N+](=O)[O-])cc1", 5.79],
  ["O=c1c2ccccc2c(-c2nnc(S)o2)nn1Cc1ccccc1", 5.53],
  ["N#Cc1nc(Cc2cccc3ccccc23)oc1N1CCOCC1", 5.88],
  ["O=C(O)CC/C(=C\\c1ccc(N2CCOCC2)c([N+](=O)[O-])c1)c1nc2ccccc2s1", 5.58]
]}

* * *

targetSystem: Solute carrier family 12 member 5 (Homo sapiens, UniProt Q9H2X9)
Sequence (Q9H2X9 whole entry): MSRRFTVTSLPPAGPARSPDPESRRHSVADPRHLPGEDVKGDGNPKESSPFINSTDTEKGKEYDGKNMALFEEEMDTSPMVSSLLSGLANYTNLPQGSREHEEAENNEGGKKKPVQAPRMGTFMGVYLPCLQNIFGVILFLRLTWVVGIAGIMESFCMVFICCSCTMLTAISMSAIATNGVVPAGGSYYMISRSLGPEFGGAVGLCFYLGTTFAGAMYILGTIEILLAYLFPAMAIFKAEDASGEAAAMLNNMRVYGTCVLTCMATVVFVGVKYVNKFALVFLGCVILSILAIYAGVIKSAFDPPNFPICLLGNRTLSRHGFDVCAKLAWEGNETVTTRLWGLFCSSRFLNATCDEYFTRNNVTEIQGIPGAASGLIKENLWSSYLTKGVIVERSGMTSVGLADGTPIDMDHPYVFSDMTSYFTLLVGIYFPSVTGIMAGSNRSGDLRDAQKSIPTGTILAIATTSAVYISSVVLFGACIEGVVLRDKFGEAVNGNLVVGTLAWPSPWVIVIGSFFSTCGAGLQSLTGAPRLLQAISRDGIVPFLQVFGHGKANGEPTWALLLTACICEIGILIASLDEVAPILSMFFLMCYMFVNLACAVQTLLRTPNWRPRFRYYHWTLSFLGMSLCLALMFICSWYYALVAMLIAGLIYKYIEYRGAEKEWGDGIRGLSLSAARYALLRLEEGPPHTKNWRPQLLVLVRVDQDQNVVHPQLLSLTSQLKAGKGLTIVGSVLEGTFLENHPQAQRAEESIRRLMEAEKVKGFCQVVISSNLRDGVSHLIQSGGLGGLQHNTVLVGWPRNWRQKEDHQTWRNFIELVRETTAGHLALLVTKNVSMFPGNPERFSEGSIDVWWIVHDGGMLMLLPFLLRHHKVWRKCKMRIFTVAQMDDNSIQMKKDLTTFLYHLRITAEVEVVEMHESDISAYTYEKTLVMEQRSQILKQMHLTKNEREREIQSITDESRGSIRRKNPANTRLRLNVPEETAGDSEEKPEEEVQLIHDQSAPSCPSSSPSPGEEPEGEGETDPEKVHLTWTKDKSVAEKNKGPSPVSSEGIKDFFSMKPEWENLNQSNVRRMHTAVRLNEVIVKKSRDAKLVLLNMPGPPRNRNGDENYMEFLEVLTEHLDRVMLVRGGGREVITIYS
protocolSummary: concentration-response of KCC2 transport modulators – cell-based, HEK293 KCC2, FluoZin-2 fluorescence, dose response (AID 1736)
So basically: is EC50 under 4 µM? Then t. Not under? Then f.

{"columns": ["mol", "targetSystem", "classLabel"],
 "data": [
  ["Oc1ccccc1CN=Nc1nc2ccccc2o1", "Solute carrier family 12 member 5 (Homo sapiens, UniProt Q9H2X9)", "f"],
  ["c1ccc(-c2nnc(Sc3ncnc4c3cnn4-c3ccccc3)[nH]2)cc1", "Solute carrier family 12 member 5 (Homo sapiens, UniProt Q9H2X9)", "f"],
  ["Sc1nnc(CCc2ccc(Cl)cc2)o1", "Solute carrier family 12 member 5 (Homo sapiens, UniProt Q9H2X9)", "t"],
  ["CC(=NNC(=S)Nc1c(C)cccc1C)c1cc2ccccc2o1", "Solute carrier family 12 member 5 (Homo sapiens, UniProt Q9H2X9)", "f"],
  ["COc1ccccc1-n1cnc2cc(NS(=O)(=O)c3ccccc3)ccc21", "Solute carrier family 12 member 5 (Homo sapiens, UniProt Q9H2X9)", "t"]
]}
